assay_name: Tmax in immunocompromized SKH1 mouse skin at 50 mg/kg, sc
Type: ADME, organism-based, Zone of skin
Design: dose 50 mg/kg, route subcutaneous
measured_parameter: Tmax (min)
Numbers only, in min.

Prompt line: Given the entry `Nc1nc(/C(=N/O)C(=O)N[C@@H]2C(=O)N3C(C(=O)O)=C(/C=C4\CCN([C@@H]5CCNC5)C4=O)CS[C@H]23)ns1` , report its measured Tmax.
Response line: 15

* * *

assay_name: Half life in Staphylococcus aureus infected immunocompetent SKH1 mouse skin at 50 mg/kg, sc
Assay type: ADME, organism-based, Zone of skin
Parameters: dose 50 mg/kg, route subcutaneous
measured_parameter: half-life (min)
Answers are plain numbers, in min.

Prompt line: Could you tell me which half-life is on file for `Nc1nc(/C(=N/O)C(=O)N[C@@H]2C(=O)N3C(C(=O)O)=C(/C=C4\CCN([C@@H]5CCNC5)C4=O)CS[C@H]23)ns1` ?
Response line: 15
